Test system: A549/ATCC NSCLC
ASSAY TEXT: NCI-60 one-dose screen, 48 h (100 = growth as untreated, 0 = no growth, -100 = all killed)
RECORDED CONDITIONS: 10 µM unless noted
Description: Growth inhibition of the A549/ATCC human Non-Small Cell Lung tumor cell line is measured as a screen for anti-cancer activity. Cells are grown in 96 well plates and exposed to the test compound for 48 hours. Compounds are tested at a single concentration, which is 10^-5 M for most compounds. The reported endpoint is percent growth (GI% or GIPRCNT), where numbers from 0 - 100% represent growth inhibition, and numbers from -100% - 0 represent cell death. […]
Compounds without any hit were thinned out: in the full panel of roughly 83,000, 20% have a hit. The source made the active and inactive calls. How the source made its calls: active means growth percent below 10; inactive means the rest.
Form field: growth (one value per entry).

Here is how some compounds turned out for growth.
[
  {
    "COMPOUND": "N#CC1CCc2c(c(-c3cn[nH]c3C(F)(F)F)nc3c(F)cc4[nH]ncc4c23)C1 (stereo not given)",
    "RECORDED RESULT": "75% (inactive)"
  },
  {
    "COMPOUND": "Brc1c2c(c(Br)c3ccccc13)CCCC2",
    "RECORDED RESULT": "79.7% (inactive)"
  },
  {
    "COMPOUND": "CC12CCC3c4ccccc4CCC3(CO1)C2 (stereo not given)",
    "RECORDED RESULT": "106% (inactive)"
  },
  {
    "COMPOUND": "CCOC(=O)c1[nH]c(=O)c2c(C)nc(-c3ccccc3)cc2c1O",
    "RECORDED RESULT": "101% (inactive)"
  },
  {
    "COMPOUND": "CN(Cc1ccc(C(F)(F)F)cc1)CC(O)C(=O)Nc1ccc(Cl)cc1 (stereo not given)",
    "RECORDED RESULT": "19.6% (inactive)"
  }
]

What the record says about O=C1/C(=C/c2cccs2)SC(=S)N1CCCN1CCOCC1 : growth is 93.2% (inactive)

What the record says about O=C1c2c(c3c4ccccc4[nH]c3c3ccc4ccccc4c23)C(=O)N1CCN1CCCCC1 : growth is 32.3% (inactive)

What the record says about CCN(CC)C(=S)SC(SC(=S)N(CC)CC)C(=O)c1nnn(-c2ccc([N+](=O)[O-])cc2)c1C : growth is 95.9% (inactive)

What the record says about COc1ccc(C(=S)N2CCN(c3ccccc3Cl)CC2)cc1OC : growth is 115% (inactive)

What the record says about COC(=O)c1n[nH]c2ccc3nc(-c4cn[nH]c4C(F)(F)F)c4c(c3c12)CCCC4 : growth is 39% (inactive)

What the record says about O=C1Nc2ccc(Br)cc2/C1=N/c1n[nH]c(=S)s1 : growth is 98% (inactive)

What the record says about O=C(CCc1nnc(Cn2cnc3nc[nH]c3c2=O)o1)c1nc2ncccc2[nH]1 : growth is 98.1% (inactive)

What the record says about C/C(=N/O)c1ccc(F)cc1 : growth is 103% (inactive)

What the record says about CCOC(=O)C#Cc1c(C(=O)OCC)nnn1[C@@H]1O[C@H](CO)[C@H]2OC3(CCCCC3)O[C@H]21 : growth is 95.2% (inactive)

What the record says about CCOC(=O)CSc1ncnc2c1c(-c1ccccc1)c(-c1ccccc1)n2-c1ccc(C)cc1 : growth is 72.5% (inactive)

What the record says about CN(C)CCNC(=O)c1cccc(-c2cnc3ccc(-c4ccc5c(c4)OCO5)nn23)c1 : growth is 87% (inactive)

What the record says about COc1cc2c(c(OC)c1OC)CCC(c1cccc(C(=O)Nc3cccc(Br)c3)c1)O2 (stereo not given) : growth is 64.5% (inactive)

What the record says about Cc1ccc(-c2nc3nc(-c4ccccc4)nc(N4CCNCC4)c3o2)cc1 : growth is -84.5% (active)

What the record says about Cc1ccc2c(n1)C(=O)c1[nH]c3ccccc3c1C2=O : growth is -14.4% (active)

What the record says about CC(C)CCC[C@@H](C)[C@H]1CC[C@H]2[C@@H]3CC=C4C[C@@H](C(C(=O)O)C(=O)O)CC[C@]4(C)[C@H]3CC[C@]12C : growth is -51.7% (active)

What the record says about COc1ccc(-c2nn(-c3ccccc3)cc2/C=C2/SC(=S)N(C)C2=O)cc1 : growth is 36.8% (inactive)

What the record says about CNC(=O)c1cc(Oc2ccc3nc(NC(C)=O)sc3c2)ccn1 : growth is 102% (inactive)

What the record says about CC1(C)CC[C@]2(c3nnc(-c4ccncc4)o3)CC[C@H]3C(=CC[C@H]4[C@@]3(C)CC[C@H]3C(C)(C)C(=O)CC[C@]43C)[C@@H]2C1 : growth is 73.9% (inactive)

* * *

System: TK-10 renal
ASSAY TEXT: NCI-60 one-dose screen, 48 h (100 = growth as untreated, 0 = no growth, -100 = all killed)
RECORDED CONDITIONS: 10 µM unless noted
Compounds without any hit were thinned out: in the full panel of roughly 83,000, 20% have a hit.
Threshold rule: growth greater than or equal to 40% is Fulfilled; below that, Not fulfilled.

Consider the following illustrative entries.
[
  {
    "COMPOUND": "OCCCC1CCN(C(Cc2ccccc2)c2ccccc2)CC1 (stereo not given)",
    "TEST SYSTEM": "TK-10 renal",
    "CLASS": "Fulfilled"
  },
  {
    "COMPOUND": "CC1=C(C(=O)OC(C)C)C(c2ccc3c(c2)OCO3)NC(=S)N1 (stereo not given)",
    "TEST SYSTEM": "TK-10 renal",
    "CLASS": "Fulfilled"
  },
  {
    "COMPOUND": "Cc1cc(Cl)ccc1Nc1nc(C(F)(F)F)ccc1C(=O)N/N=C/c1ccc([N+](=O)[O-])cc1",
    "TEST SYSTEM": "TK-10 renal",
    "CLASS": "Not fulfilled"
  },
  {
    "COMPOUND": "COCCn1c(-c2csc(-c3cn(C)c4ccc(OC)cc34)n2)cc2cccnc21",
    "TEST SYSTEM": "TK-10 renal",
    "CLASS": "Fulfilled"
  },
  {
    "COMPOUND": "CC1Cc2c(Cl)ncnc2N(C)c2ccc(F)cc21 (stereo not given)",
    "TEST SYSTEM": "TK-10 renal",
    "CLASS": "Fulfilled"
  }
]

# check: growth of CN1CCN(Cc2ccc(NC(=O)c3cncc(C#Cc4cnc(N)c5ccccc45)c3)cc2C(F)(F)F)CC1 is greater than or equal to 40% Not fulfilled

# check: growth of CCNC(=O)c1[nH]cc(-c2ccccc2)c1-c1cc(OC)c2c(c1OC)OCO2 is greater than or equal to 40% Fulfilled

# check: growth of Cc1ccc(-c2nc3nc(-c4ccccc4)nc(N4CCNCC4)c3o2)cc1 is greater than or equal to 40% Not fulfilled

# check: growth of C#CCn1cnc2c(Nc3cccc(NC(=O)C=C)c3)ncnc21 is greater than or equal to 40% Fulfilled

# check: growth of OB(O)c1cccc(-c2nc3ccc4[nH]ncc4c3c3c2CCCC3)c1 is greater than or equal to 40% Not fulfilled

* * *

System: A498 renal
ASSAY TEXT: NCI-60 one-dose screen, 48 h
RECORDED CONDITIONS: 10 µM unless noted
About 83,000 compounds went through this panel and 20% of them were active in at least one assay; those are over-represented in the sample as a whole. The source made the active and inactive calls. How the source made its calls: active means growth percent below 10; inactive means the rest.
Respond using exactly one of the listed classes: 1 (active), -1 (inactive)

Consider the following illustrative entries.
[
  {
    "CHEMICAL SMILES": "O=C(CSc1nc2ccc([N+](=O)[O-])cc2[nH]1)Nc1cccc(C(F)(F)F)c1",
    "CLASS": 1
  },
  {
    "CHEMICAL SMILES": "CS(=O)(=O)Nc1cc(-c2ccc3ncnc(Nc4ccc5c(cnn5Cc5ccccn5)c4)c3c2)cnc1Cl",
    "CLASS": -1
  },
  {
    "CHEMICAL SMILES": "O=C1/C(=C/c2ccc(F)cc2)COc2ccc(O)c(O)c21",
    "CLASS": -1
  }
]

What is the recorded call for this compound in the test? CCOP(=O)(OCC)c1nc(-c2ccccc2)oc1NCc1cccnc1 -1

* * *

System: MDA-MB-231 breast
ASSAY TEXT: NCI-60 one-dose screen, 48 h (100 = growth as untreated, 0 = no growth, -100 = all killed)
RECORDED CONDITIONS: 10 µM unless noted
The panel holds about 83,000 compounds, 20% with a hit somewhere; the sample as a whole holds those more often.
Form field: growth (one value per entry).
Give a bare numeral; the unit % is implied.

Here is how some compounds turned out for growth.
[
  {
    "COMPOUND": "O=C(Nc1cccc([N+](=O)[O-])c1)c1cc2ccccc2cc1O",
    "TEST SYSTEM": "MDA-MB-231 breast",
    "READOUT TYPE": "growth",
    "RECORDED RESULT": -43
  },
  {
    "COMPOUND": "COC(C(=O)[C@@H](O)[C@@H](C)O)[C@@H]1Cc2cc3cc(O[C@H]4C[C@@H](O[C@H]5C[C@@H](O)[C@H](O)C(C)O5)[C@H](O)C(C)O4)cc(O)c3c(O)c2C(=O)[C@H]1O[C@H]1C[C@@H](O[C@H]2C[C@@H](O[C@H]3C[C@@H](OC)[C@H](O)C(C)O3)[C@@H](O)C(C)O2)[C@H](O)C(C)O1 (stereo partly drawn)",
    "TEST SYSTEM": "MDA-MB-231 breast",
    "READOUT TYPE": "growth",
    "RECORDED RESULT": 43.2
  },
  {
    "COMPOUND": "O=C1/C(=C/c2cccs2)SC(=S)N1CCCN1CCOCC1",
    "TEST SYSTEM": "MDA-MB-231 breast",
    "READOUT TYPE": "growth",
    "RECORDED RESULT": 82.7
  },
  {
    "COMPOUND": "CCN1CC(=O)N(/N=C2\\C(=O)Nc3ccccc32)C1=S",
    "TEST SYSTEM": "MDA-MB-231 breast",
    "READOUT TYPE": "growth",
    "RECORDED RESULT": 88.5
  },
  {
    "COMPOUND": "O=C(CCCCC1CCSS1)Nc1ncnc2n[nH]c(-c3ccc(Oc4ccccc4)cc3)c12 (stereo not drawn)",
    "TEST SYSTEM": "MDA-MB-231 breast",
    "READOUT TYPE": "growth",
    "RECORDED RESULT": 68.3
  }
]

What the record says about CCNc1cc(-c2cccc(OC(F)(F)F)c2)nc2ccc(N3CCCC3)cc12 : growth is 15.3

What the record says about COc1cc(C(=O)n2nc(N3CCN(C)CC3)c3cc(N)ccc32)cc(OC)c1OC : growth is 50.3

What the record says about COCCn1c(-c2csc(-c3cn(C)c4ccc(OC)cc34)n2)cc2cccnc21 : growth is 43.6
